Below, each entry is listed alongside its reported folding stability dG.
B1: HHH_rd2_0155 (parent)
chain: PPDDERKKAEKAARSGNEEKAREILERLGYSEDEARELAKRLR

# Variants of: B1
# assay-info: folding stability dG (cDNA display proteolysis); higher = more stable
# condition-context: PBS, room temperature
Provide the reading as a plain figure in kcal/mol.

These recorded examples may help you get a feel for the data.
PPDDERKKAEKAARSGNEEKAREILERLGMSEDEARELAKRLR [Y30M] has a reported folding stability dG of 1.74

Entry PPDDERKKAEKAARSGNEEKAREILERLGYSEDEYRELAKRLR [A35Y] — recorded folding stability dG = 0.905

Just so you know, measured folding stability dG for PPDNERKKAEKAARSGNEEKAREILERLGYSEDEARELAKRLR [D4N] came out at 1.9

For GPDDERKKAEKAARSGNEEKAREILERLGYSEDEARELAKRLR [P1G] the variant record lists folding stability dG as 2.26

Documented folding stability dG of PPDDERKKAEKAARSGNEEKAREILGRLGYSEDEARELAKRLR [E26G] : 1.5

---
For this variant ( PPDDERVKAEKAARSGNEEKAREILERLGYSEDEARELAKRLR [K7V] ), measured folding stability dG is 2.02

Record summary for PPDDERKKAEKAARSGNEEKAREILERLGYSEDEARLLAKRLR [E37L] : reported folding stability dG = 2.17

Quick note, folding stability dG for PPDDERKKAEKAARSGNEEKAREILERLGYSEDEARELAKELR [R41E] landed at 1.05

Noted for PPDDERKKAEKAARSGIEEKAREILERLGYSEDEARELAKRLR [N17I] : its folding stability dG reads 1.13

Just so you know, measured folding stability dG for PPHDERKKAEKAARSGNEEKAREILERLGYSEDEARELAKRLR [D3H] came out at 1.9
